All figures here come from ChEMBL document CHEMBL1143282.

Assay: Chemical stability assessed as photodecomposition-associated half life in MeCN using UV lamp
Assay type: physicochemical
Settings: MeCN solution irradiated with UV lamp
property: half-life (min)
Lab book: enter the figure in min, no units written.

Can you share its half-life? I mean this molecule: O=C(c1ccccc1)c1ccc(C2=CSC3=NCCN23)cc1
12
